Values from patent US20080287445A1

Molecular target: GPR73 (prokineticin 1 receptor) (Homo sapiens, UniProt Q8TCW9)
Construct: expressed in transfected cells; host or cells: HEK 293
Sequence (Q8TCW9 whole entry, species assumed): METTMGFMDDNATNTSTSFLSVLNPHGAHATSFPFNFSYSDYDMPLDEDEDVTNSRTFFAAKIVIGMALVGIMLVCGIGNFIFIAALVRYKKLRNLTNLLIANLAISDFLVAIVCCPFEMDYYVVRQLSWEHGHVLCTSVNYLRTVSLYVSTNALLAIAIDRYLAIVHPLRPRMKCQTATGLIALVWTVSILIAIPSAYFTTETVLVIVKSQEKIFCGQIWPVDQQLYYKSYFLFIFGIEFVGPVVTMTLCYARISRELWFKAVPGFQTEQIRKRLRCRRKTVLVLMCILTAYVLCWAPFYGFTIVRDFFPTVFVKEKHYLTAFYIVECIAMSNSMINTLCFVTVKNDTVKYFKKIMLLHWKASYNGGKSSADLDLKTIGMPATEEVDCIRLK
Test: PK1 functional assay: Ca2+ mobilization screening for PK1 antagonists on the FLIPR
Type: cell-based
Conditions: HEK293, 10 μM compound; HEK 293 GPR73 cells; multiple values = multiple testing; read-out: Ca^2+ Mobilization % Inh @ 10 μM
Task for the reader: assign each of the following compounds its reported inhibition at 10 µM.
One number for each entry, in %.

Nc1cccc(CNc2nc(=O)n(Cc3ccc(F)cc3)c(=O)n2Cc2ccc(OC(F)F)cc2)n1 [Cpd 156] : 70
COCCCCCn1c(NCc2cccnc2N)nc(=O)n(Cc2ccc(Cl)cc2)c1=O [Cpd 256] : 99
COCCCCCn1c(=O)nc(NCc2cnc(C)cc2C)n(Cc2ccc(OC(F)F)cc2)c1=O [Cpd 198] : 64
CCCNc1cccc(CNc2nc(=O)n(Cc3ccc(OC)cc3)c(=O)n2Cc2ccc(OC)cc2)n1 [Cpd 147] : 99

Required: inhibition at 10 µM, one value per compound below.
1. COc1ccc(Cn2c(C=Cc3ccncc3)cc(=O)n(Cc3ccc(OC)cc3)c2=O)cc1 [Cpd 184]
2. CC(=O)Oc1ccc(Cn2c(=O)nc(NCc3cnc(C)cc3C)n(Cc3ccc(OC(F)F)cc3)c2=O)cc1 [Cpd 182]
3. Cc1cc(C)c(CNc2nc(=O)n(CCOc3ccc(F)cc3)c(=O)n2Cc2ccc(OC(F)F)cc2)cn1 [Cpd 167]
4. COc1ccc(Cn2c(NCc3cccnc3N3CCSCC3)nc(=O)n(Cc3ccc(F)cc3)c2=O)cc1 [Cpd 18]
5. COc1ccc(Cn2c(NCc3c(C)cc(C)nc3N)nc(=O)n(Cc3ccc(OC)cc3)c2=O)cc1 [Cpd 97]
6. COc1ccc(Cn2c(=O)nc(NCc3cnc(C)cc3C)n(Cc3ccc4c(c3)CCO4)c2=O)cc1 [Cpd 128]

1: 65; 2: 55; 3: 65; 4: 58; 5: 90; 6: 93

Suppose we examine the compound COc1ccc(Cn2c(NCc3cnc(C)cc3C)nc(=O)n(Cc3ccc([N+](=O)[O-])cc3)c2=O)cc1 [Cpd 108] ; what inhibition at 10 µM value has been reported?
42

* * *

Record form. Attribute: inhibition at 10 µM. Fill in for each entry.
Target: GPR73 (prokineticin 1 receptor) (Homo sapiens)
Construct: expressed in transfected cells; host or cells: HEK 293
Assay: PK1 functional assay: Ca2+ mobilization screening for PK1 antagonists on the FLIPR
Assay type: cell-based
Conditions: HEK293, 10 μM compound; HEK 293 GPR73 cells; multiple values = multiple testing; read-out: Ca^2+ Mobilization % Inh @ 10 μM
Numbers only, in %.

Solved entries (count: 6):
COc1ccc(Cn2c(NCc3cnc(C)cc3C)nc(=O)n(Cc3ccc4c(c3)CCO4)c2=O)cc1 : 83
COc1ccc(Cn2c(NCc3cccc(N)n3)nc(=O)n(Cc3ccc(OC)cc3)c2=O)cc1 : 98
COc1ccc(Cn2c(NCc3cccnc3N)nc(=O)n(Cc3cccc(OC)c3)c2=O)cc1 : 49
COc1ccc(Cn2c(CNCc3cccnc3N)cc(=O)n(Cc3ccc(OC)cc3)c2=O)cc1 : 60
COc1ccc(Cn2c(NCc3cnc(C)cc3C)nc(=O)n(Cc3ccc(F)cc3)c2=O)cc1 : 88
COc1ccc(Cn2c(NCc3cccnc3N3CCCC3)nc(=O)n(Cc3ccc(F)cc3)c2=O)cc1 : 54

Please give inhibition at 10 µM for each item listed below.
1. COCCCCCn1c(NCc2c(C)cc(C)nc2N)nc(=O)n(Cc2ccc(Cl)cc2)c1=O
2. COc1ccc(Cn2c(NCc3c(N)nc4c(c3-c3ccccc3)CCC4)nc(=O)n(Cc3ccc(OC)cc3)c2=O)cc1

97
48
